target_system: breast cancer resistance protein (BCRP) (Homo sapiens, UniProt Q9UNQ0)
Sequence (Q9UNQ0 1-655): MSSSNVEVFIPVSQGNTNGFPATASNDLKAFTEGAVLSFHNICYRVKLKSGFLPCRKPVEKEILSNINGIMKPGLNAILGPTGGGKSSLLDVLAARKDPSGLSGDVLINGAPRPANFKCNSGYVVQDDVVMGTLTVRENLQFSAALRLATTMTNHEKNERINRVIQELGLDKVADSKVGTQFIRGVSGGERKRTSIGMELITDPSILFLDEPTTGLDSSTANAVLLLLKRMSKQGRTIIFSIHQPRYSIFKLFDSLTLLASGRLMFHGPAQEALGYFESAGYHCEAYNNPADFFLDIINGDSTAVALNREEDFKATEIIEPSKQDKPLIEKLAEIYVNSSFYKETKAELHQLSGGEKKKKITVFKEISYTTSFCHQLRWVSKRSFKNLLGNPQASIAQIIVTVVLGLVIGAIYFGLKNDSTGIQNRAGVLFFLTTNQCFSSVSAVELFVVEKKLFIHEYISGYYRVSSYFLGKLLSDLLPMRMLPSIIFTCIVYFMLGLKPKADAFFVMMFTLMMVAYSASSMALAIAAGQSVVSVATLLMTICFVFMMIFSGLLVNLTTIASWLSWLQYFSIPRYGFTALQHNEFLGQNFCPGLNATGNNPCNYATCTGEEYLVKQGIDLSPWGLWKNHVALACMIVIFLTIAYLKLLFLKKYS
experiment_summary: mitoxantrone accumulation in BCRP-overexpressing PLB985 cells, flow cytometry
assay_readout: IC50

| compound | target_system | observed |
| --- | --- | --- |
| O=C(Nc1c(Cl)cncc1Cl)c1ccc(OC(F)F)c(OCC2CC2)c1 | breast cancer resistance protein (BCRP) (Homo sapiens, UniProt Q9UNQ0) | 900 nM |

Would you kindly look at the next entry?
q: Give the measured IC50 for COc1cc(N)c(Cl)cc1C(=O)NC1CCN(CCCOc2ccc(F)cc2)CC1OC (centres unmarked) [cisapride]
a: 400 nM
